# Staph.aureus ATCC6538P: MIC values follow

Lookup: Identify measured MIC associated with CCCC(=O)OC1C(C)OC(OC2C(C)OC(OC3C(CC=O)CC(C)C(=O)C=CC(C)=CC(COC4OC(C)C(O)C(OC)C4OC)C(CC)OC(=O)CC(O)C3C)C(O)C2N(C)C)CC1(C)OC(C)=O (centres unmarked)
Found: 1.6 µg/mL

Lookup: Write down MIC measured for item CCC1OC(=O)CC(O)C(C)C(OC2OC(C)C(OC3CC(C)(OC(C)=O)C(OC(=O)CC(C)C)C(C)O3)C(N(C)C)C2O)C(CC=O)CC(C)C(=O)C=CC(C)=CC1COC1OC(C)C(O)C(OC)C1OC (centres unmarked)
Found: 1.6 µg/mL

Report MIC for each item below.
1. CCC(=O)OC1(C)CC(OC2C(C)OC(OC3C(CC=O)CC(C)C(=O)C=CC(C)=CC(COC4OC(C)C(O)C(OC)C4OC)C(CC)OC(=O)CC(O)C3C)C(O)C2N(C)C)OC(C)C1OC(=O)CC(C)C (centres unmarked)
2. CCC1OC(=O)CC(O)C(C)C(OC2OC(C)C(OC3CC(C)(OC(=O)CC(C)C)C(OC(C)=O)C(C)O3)C(N(C)C)C2O)C(CC=O)CC(C)C(=O)C=CC(C)=CC1COC1OC(C)C(O)C(OC)C1OC (centres unmarked)
3. CCCC(=O)OC1C(C)OC(OC2C(C)OC(OC3C(CC=O)CC(C)C(=O)C=CC(C)=CC(COC4OC(C)C(O)C(OC)C4OC)C(CC)OC(=O)CC(O)C3C)C(O)C2N(C)C)CC1(C)O (centres unmarked) [3"-H, 4"-Bu, reference compound]
4. CCC1OC(=O)CC(O)C(C)C(OC2OC(C)C(OC3CC(C)(OC(C)=O)C(OC(C)=O)C(C)O3)C(N(C)C)C2O)C(CC=O)CC(C)C(=O)C=CC(C)=CC1COC1OC(C)C(O)C(OC)C1OC (centres unmarked)
5. CCCC(=O)OC1C(C)OC(OC2C(C)OC(OC3C(CC=O)CC(C)C(=O)C=CC(C)=CC(COC4OC(C)C(O)C(OC)C4OC)C(CC)OC(=O)CC(O)C3C)C(O)C2N(C)C)CC1(C)OC(=O)CCC (centres unmarked)
6. CC[C@H]1OC(=O)C[C@@H](O)[C@H](C)[C@@H](O[C@@H]2O[C@H](C)[C@@H](O[C@H]3C[C@@](C)(O)[C@@H](O)[C@H](C)O3)[C@H](N(C)C)[C@H]2O)[C@@H](CC=O)C[C@@H](C)C(=O)/C=C/C(C)=C/[C@@H]1CO[C@@H]1O[C@H](C)[C@@H](O)[C@@H](OC)[C@H]1OC

Found:
1.6 µg/mL
0.8 µg/mL
0.8 µg/mL
0.8 µg/mL
1.6 µg/mL
0.8 µg/mL

====

Here we list compounds with their recorded MIC when tested on Strept.pyogenes N.Y.5.

Would you please look over these solved cases?
Lookup: Answer with MIC of CCCCCC(=O)OC1C(C)OC(OC2C(C)OC(OC3C(CC=O)CC(C)C(=O)C=CC(C)=CC(COC4OC(C)C(O)C(OC)C4OC)C(CC)OC(=O)CC(O)C3C)C(O)C2N(C)C)CC1(C)OC(C)=O (stereo not drawn) measured for Strept.pyogenes N.Y.5.
Found: 0.4 µg/mL

Lookup: Recall the reported MIC of CCC(=O)OC1(C)CC(OC2C(C)OC(OC3C(CC=O)CC(C)C(=O)C=CC(C)=CC(COC4OC(C)C(O)C(OC)C4OC)C(CC)OC(=O)CC(O)C3C)C(O)C2N(C)C)OC(C)C1OC(=O)CC(C)C (stereo not drawn) when tested on Strept.pyogenes N.Y.5.
Found: 0.4 µg/mL

Lookup: Report its MIC with Strept.pyogenes N.Y.5 as the test system: CCC1OC(=O)CC(O)C(C)C(OC2OC(C)C(OC3CC(C)(OC(C)=O)C(OC(=O)CC(C)C)C(C)O3)C(N(C)C)C2O)C(CC=O)CC(C)C(=O)C=CC(C)=CC1COC1OC(C)C(O)C(OC)C1OC (stereo not drawn)
Found: 0.2 µg/mL

Lookup: Provide measured MIC on Strept.pyogenes N.Y.5 for CC[C@H]1OC(=O)C[C@@H](O)[C@H](C)[C@@H](O[C@@H]2O[C@H](C)[C@@H](O[C@H]3C[C@@](C)(O)[C@@H](O)[C@H](C)O3)[C@H](N(C)C)[C@H]2O)[C@@H](CC=O)C[C@@H](C)C(=O)/C=C/C(C)=C/[C@@H]1CO[C@@H]1O[C@H](C)[C@@H](O)[C@@H](OC)[C@H]1OC please.
Found: 0.2 µg/mL

Lookup: Identify measured MIC obtained with Strept.pyogenes N.Y.5 for CCC(=O)OC1C(C)OC(OC2C(C)OC(OC3C(CC=O)CC(C)C(=O)C=CC(C)=CC(COC4OC(C)C(O)C(OC)C4OC)C(CC)OC(=O)CC(O)C3C)C(O)C2N(C)C)CC1(C)OC(C)=O (stereo not drawn) .
Found: 0.2 µg/mL

I need MIC for every entry listed below, if you could help.
1. CCC1OC(=O)CC(O)C(C)C(OC2OC(C)C(OC3CC(C)(OC(=O)CC(C)C)C(OC(C)=O)C(C)O3)C(N(C)C)C2O)C(CC=O)CC(C)C(=O)C=CC(C)=CC1COC1OC(C)C(O)C(OC)C1OC (stereo not drawn)
2. CCCC(=O)OC1C(C)OC(OC2C(C)OC(OC3C(CC=O)CC(C)C(=O)C=CC(C)=CC(COC4OC(C)C(O)C(OC)C4OC)C(CC)OC(=O)CC(O)C3C)C(O)C2N(C)C)CC1(C)O (stereo not drawn) [3"-H, 4"-Bu, reference compound]
3. CCCC(=O)OC1C(C)OC(OC2C(C)OC(OC3C(CC=O)CC(C)C(=O)C=CC(C)=CC(COC4OC(C)C(O)C(OC)C4OC)C(CC)OC(=O)CC(O)C3C)C(O)C2N(C)C)CC1(C)OC(C)=O (stereo not drawn)
4. CCCC(=O)OC1C(C)OC(OC2C(C)OC(OC3C(CC=O)CC(C)C(=O)C=CC(C)=CC(COC4OC(C)C(O)C(OC)C4OC)C(CC)OC(=O)CC(O)C3C)C(O)C2N(C)C)CC1(C)OC(=O)CCC (stereo not drawn)
5. CCC1OC(=O)CC(O)C(C)C(OC2OC(C)C(OC3CC(C)(OC(C)=O)C(OC(C)=O)C(C)O3)C(N(C)C)C2O)C(CC=O)CC(C)C(=O)C=CC(C)=CC1COC1OC(C)C(O)C(OC)C1OC (stereo not drawn)
6. CCCC(=O)OC1C(C)OC(OC2C(C)OC(OC3C(CC=O)CC(C)C(=O)C=CC(C)=CC(COC4OC(C)C(O)C(OC)C4OC)C(CC)OC(=O)CC(O)C3C)C(O)C2N(C)C)CC1(C)OC(=O)CC (stereo not drawn)
7. CCC(=O)OC1C(C)OC(OC2C(C)OC(OC3C(CC=O)CC(C)C(=O)C=CC(C)=CC(COC4OC(C)C(O)C(OC)C4OC)C(CC)OC(=O)CC(O)C3C)C(O)C2N(C)C)CC1(C)OC(=O)CC (stereo not drawn)

Found:
1: 0.2 µg/mL; 2: 0.2 µg/mL; 3: 0.2 µg/mL; 4: 0.2 µg/mL; 5: 0.2 µg/mL; 6: 0.2 µg/mL; 7: 0.2 µg/mL
